Below, each entry is listed with its recorded % bound.
- SUBJECT_OF_TEST: T1, human collagen type I, acid soluble, extracted from placenta (Sigma C7774) (human, UniProt P02452 162-1218; P08123 80-1119)
- T1 construct: tissue extract, gelled and dried in wells; also called dried human collagen; h-Collagen
- ASSAY: dried collagen assay; further: test concentration or dose not given here
Bridge positions count the residues as written; N and C are the ends. Square brackets hold non-standard residues; d marks the D form. Ends that are not written are not given here. NMeA = CN[C@@H](C)C(=O)O
The reply should be a number in %, with the unit left off.

Q) What value of % bound has been recorded for this entry: RWSCWLDENGWKCDGT (disulfide 4-13 (inferred), cyclic, disulfide) [SEQ ID NO 52]
A) 15

Continuing:
Q) What value of % bound has been recorded for this entry: YHACYQ[NMeA]GCWIW (disulfide 4-9 (inferred), cyclic, disulfide; also called YHACYQA'GCWIW) [SEQ ID NO 105]
A) 9

Q) What value of % bound has been recorded for this entry: HWSCYLGDNGWNCHDR (disulfide 4-13 (inferred), cyclic, disulfide) [SEQ ID NO 62]
A) 9

Q) What value of % bound has been recorded for this entry: WTCSGDEYTWHCNYE (disulfide 3-12 (inferred), cyclic, disulfide) [SEQ ID NO 114]
A) 19

Q) What value of % bound has been recorded for this entry: DWTCYGDEYTWHCNYE (disulfide 4-13 (inferred); not fully specified (C-terminus), cyclic, disulfide) [SEQ ID NO 15]
A) 83

Q) What value of % bound has been recorded for this entry: FWRCALLDGHWQCTDH (disulfide 4-13 (inferred), cyclic, disulfide) [SEQ ID NO 70]
A) 3

Q) What value of % bound has been recorded for this entry: GQWTCSGDEYTWHCAYE (disulfide 5-14 (inferred); not fully specified (C-terminus), cyclic, disulfide) [SEQ ID NO 149]
A) 82

Q) What value of % bound has been recorded for this entry: YHACYQAGCYIW (disulfide 4-9 (inferred), cyclic, disulfide) [SEQ ID NO 107]
A) 9
